System: PC-3 prostate
Assay: NCI-60 one-dose screen, 48 h (100 = growth as untreated, 0 = no growth, -100 = all killed)
Settings: 10 µM unless noted
This is part of a sample that, as a whole, favours compounds with a hit. Of some 83,000 tested, about 20% had one in any assay.
Label YES for high-side growth (at or above 90%) and NO for low-side growth (below it).

>>> df
                                   molecule  group
0  COc1cc2cc(Oc3ccc(NC(=O)Nc4cccc(C(F)(F)F)c4)cc3)c(C)nc2cc1OCCN(C)C     NO
1  CCN1C(=O)N(CC)C2SC(N/N=C/c3ccc(OC)cc3)=NC21 (stereo not given)     NO
2  CCN1CCN(c2cc(C(=O)Nc3nc4ccc(Oc5ccnc(C(=O)NC)c5)cc4s3)cc(C(F)(F)F)c2)CC1     NO
3  CS(=O)(=O)c1ccc2c(c1)c1c(n2C(=O)c2ccc(Cl)cc2)CCCC1     NO
4  O=C1Nc2cc(OC(F)(F)F)ccc2Oc2ccc(-c3ccnc(N4CCNCC4)c3)cc21     NO
5  CC(C)(C)OC(=O)N1CCN(S(=O)(=O)/N=C2\NC(=O)NC2=C(Cl)Cl)CC1    YES
6                      Cc1cnc2nc(NN)[nH]n12    YES
7  O=C1/C(=C/c2ccccc2[N+](=O)[O-])Oc2ccc(O)cc21     NO

Sourced from PubChem BioAssay (NCI)
